Target: Aminopeptidase N (Sus scrofa, UniProt P15145)
Sequence (P15145 whole entry): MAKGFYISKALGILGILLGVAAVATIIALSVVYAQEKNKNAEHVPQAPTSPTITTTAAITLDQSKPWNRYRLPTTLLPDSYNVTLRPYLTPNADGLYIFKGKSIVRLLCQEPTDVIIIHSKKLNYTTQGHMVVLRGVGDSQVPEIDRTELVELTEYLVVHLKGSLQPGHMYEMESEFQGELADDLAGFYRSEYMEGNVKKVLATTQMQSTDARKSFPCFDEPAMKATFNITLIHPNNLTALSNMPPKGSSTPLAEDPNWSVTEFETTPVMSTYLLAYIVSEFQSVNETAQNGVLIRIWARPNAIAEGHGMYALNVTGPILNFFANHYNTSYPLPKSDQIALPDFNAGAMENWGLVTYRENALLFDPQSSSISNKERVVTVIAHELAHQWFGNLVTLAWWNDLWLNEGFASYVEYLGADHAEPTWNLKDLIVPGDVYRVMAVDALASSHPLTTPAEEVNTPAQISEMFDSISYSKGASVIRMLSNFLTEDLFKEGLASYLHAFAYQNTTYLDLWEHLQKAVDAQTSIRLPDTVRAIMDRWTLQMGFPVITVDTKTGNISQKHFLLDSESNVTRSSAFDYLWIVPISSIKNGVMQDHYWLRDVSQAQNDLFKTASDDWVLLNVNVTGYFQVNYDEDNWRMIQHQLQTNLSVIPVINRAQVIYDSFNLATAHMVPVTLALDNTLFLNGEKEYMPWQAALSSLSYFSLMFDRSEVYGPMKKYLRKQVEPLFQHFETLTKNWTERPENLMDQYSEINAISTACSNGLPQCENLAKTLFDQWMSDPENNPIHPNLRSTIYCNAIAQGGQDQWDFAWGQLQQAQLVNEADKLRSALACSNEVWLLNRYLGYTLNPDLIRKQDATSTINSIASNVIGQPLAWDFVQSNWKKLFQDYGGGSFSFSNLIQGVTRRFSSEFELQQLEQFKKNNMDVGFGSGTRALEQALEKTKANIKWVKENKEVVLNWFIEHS
Readout name: pKi
// pKi is dimensionless: -log10 of concentration (M)

// known answers, use as guide
• CC(C)CC(CP(=O)(O)C(N)CCc1ccccc1)C(=O)O (centres undefined) = 6.00
• CC(C)CC(N)P(=O)(O)CCC(=O)O (centres undefined) = 5.85
• CC(C)CC(CP(=O)(O)C(N)CC(C)C)C(=O)O (stereo in doubt; 27) = 5.99

Now take the following compound into account.
Exercise: Record request: pKi value, item CC(C)CC(N)P(=O)(O)O (centres undefined)
Solution: 4.26
